System: SK-MEL-5 melanoma
test summary: NCI tumour cell line growth inhibition, 48 h
// GI50 lookup, one value per entry
quantity: GI50

compound=O=C(Nc1ccc(-c2nc3cc4ccccc4cc3[nH]2)cc1)c1cccc(Br)c1 system_under_test="SK-MEL-5 melanoma" observed="6.58 µM"
compound=Cn1c(C(N)=O)cc2c1-c1nc(Nc3ccccc3)ncc1CCC2 system_under_test="SK-MEL-5 melanoma" observed="11.4 µM"
compound=O=C(Nc1ccc(S(=O)(=O)Nc2nccs2)cc1)c1cccnc1Nc1cccc(Cl)c1 system_under_test="SK-MEL-5 melanoma" observed="11.3 µM"
compound=C=C1C(=O)O[C@@H]2C[C@@H]1CC[C@]1(C)O[C@H]1CC[C@@]1(C)O[C@@H]1CC[C@@]2(C)O system_under_test="SK-MEL-5 melanoma" observed="14 µM"
